Molecular target: Hypoxia-inducible factor 1-alpha (Homo sapiens)
Assay: ATG_HIF1a_CIS: Attagene CIS-FACTORIAL HepG2 Assay for human Hypoxia Inducible Factor 1 (HIF1A) (AID 2282951)
Conditions: HepG2 Attagene cis-factorial HIF1a reporter transcription; actives raise or lower the signal
Activity calls are given as the source filed them. How the source made its calls: active means hit-call score of the fitted dose curve at least 0.9, where 1 is the maximum; inactive means score below 0.9.
Just give me one of these, please: 1 (active), -1 (inactive)

Record excerpt, results attached:
{"molecule": "COc1ccc2nc(N)sc2c1", "cat": -1}
{"molecule": "Cc1ccc(C(C)(C)C)cc1", "cat": -1}
{"molecule": "CCCC(C)CCC(C)=O (stereo unspecified)", "cat": -1}

Dear colleague, could you share the recorded outcome for C1=Cc2ccccc2C1 when you have a moment?
-1

Check the results log: what was the call for CCCC(=O)OCc1ccccc1 ?
-1

# fetch the recorded call for O=C(C(Cl)Cl)N1CCOC12CCCCC2 here
-1

Could you kindly confirm the outcome this assay logged for C1CN(SSN2CCOCC2)CCO1 ?
-1

Field: outcome | Entry: O=C(Oc1ccccc1)c1ccc2ccccc2c1O
1

Dear colleague, could you share the recorded outcome for O=S(=O)(O)CC(O)CCl (stereo unspecified) when you have a moment?
-1

====

Read-out: Thrombomodulin, THBD (gene 7056)
Test: BSK_CASM3C_Thrombomodulin: BioMAP Diversity Plus: CASM3C Assay for Thrombomodulin Biomarker Activity (AID 2283051);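 further: thrombomodulin protein level measured by ELISA 24 h after dosing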
Details: primary human coronary artery smooth muscle cells; actives raise or lower the signal
Calls of active or inactive are those of the source. How the source made its calls: active means hit-call score of the fitted dose curve at least 0.9, where 1 is the maximum; inactive means score below 0.9.
parameter_measured: AC50

Here are 6 compounds together with their reported answers.
{"compound": "C=CC(=O)OCC(Br)CBr (centres undefined)", "AC50": "32.8 µM (active)"}
{"compound": "C#CC1(O)CC[C@H]2[C@@H]3CCC4=CCCC[C@@H]4[C@H]3CC[C@@]21C (some centres undefined)", "AC50": "20 µM (active)"}
{"compound": "CCO[Si](CCCN=C=O)(OCC)OCC", "AC50": "inactive"}
{"compound": "S=C(NC1CCCCC1)NC1CCCCC1", "AC50": "20 µM (active)"}
{"compound": "CCCCCCCCc1ccc(Nc2ccc(CCCCCCCC)cc2)cc1", "AC50": "inactive"}
{"compound": "c1ccc2c(c1)ccc1ncccc12", "AC50": "inactive"}

What value of measured AC50 is listed for CCCCNc1ccc(NCCCC)c2c1C(=O)c1ccccc1C2=O ?
inactive

Endpoint output: AC50 of CO[Si](OC)(OC)c1ccccc1 . Value?
inactive

So what's the measured AC50 for this one? CN1C(=O)N(C)C(O)C1O (centres undefined)
inactive

Please report the recorded AC50 for CCCCC(CC)COCC1CO1 (centres undefined) .
inactive

Requested read-out: AC50. Entry: CCCCC/C=C\C/C=C\CCCCCCCC(=O)OC
inactive

Query: AC50; subject: C=CCOCC(O)CCl (centres undefined)
inactive

Recorded AC50 of CCOc1nc(F)cc2nc(S(=O)(=O)Nc3c(Cl)cccc3C(=O)OC)nn12 , please.
inactive

Please look up its AC50: O=c1c2ccccc2oc2ccccc12
inactive

====

Target: Aryl hydrocarbon receptor (Homo sapiens) (UniProt P35869)
Sequence (P35869 whole entry, looked up): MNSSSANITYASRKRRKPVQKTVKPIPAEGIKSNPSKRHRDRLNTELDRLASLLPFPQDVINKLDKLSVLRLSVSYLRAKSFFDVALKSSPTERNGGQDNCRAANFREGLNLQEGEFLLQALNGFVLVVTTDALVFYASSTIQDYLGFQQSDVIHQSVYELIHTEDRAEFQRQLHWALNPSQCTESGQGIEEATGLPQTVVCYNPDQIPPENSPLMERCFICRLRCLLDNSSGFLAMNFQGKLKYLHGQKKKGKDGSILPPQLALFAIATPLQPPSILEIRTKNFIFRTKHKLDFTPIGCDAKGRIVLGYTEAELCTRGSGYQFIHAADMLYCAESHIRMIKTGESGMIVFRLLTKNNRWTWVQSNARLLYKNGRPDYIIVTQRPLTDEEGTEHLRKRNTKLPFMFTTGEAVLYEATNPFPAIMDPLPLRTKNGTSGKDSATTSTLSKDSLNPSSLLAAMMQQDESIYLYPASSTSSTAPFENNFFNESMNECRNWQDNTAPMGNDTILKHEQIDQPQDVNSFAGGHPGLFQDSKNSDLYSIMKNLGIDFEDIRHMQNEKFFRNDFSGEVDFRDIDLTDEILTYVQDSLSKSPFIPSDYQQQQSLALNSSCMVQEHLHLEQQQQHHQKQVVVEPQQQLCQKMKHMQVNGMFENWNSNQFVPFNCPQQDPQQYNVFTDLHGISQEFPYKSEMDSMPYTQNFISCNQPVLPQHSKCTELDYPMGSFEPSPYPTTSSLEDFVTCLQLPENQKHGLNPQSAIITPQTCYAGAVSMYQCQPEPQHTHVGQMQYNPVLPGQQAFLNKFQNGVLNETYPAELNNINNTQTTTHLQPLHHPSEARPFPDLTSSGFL
Assay: ATG_Ahr_CIS: Attagene CIS-FACTORIAL HepG2 Assay for human Aryl Hydrocarbon Receptor (Ahr) (AID 2282930)
Conditions: HepG2 AhR cis-factorial reporter transcription; actives raise or lower the signal
Calls of active or inactive are those of the source. Rule for the calls: active = hit-call score of the fitted dose curve at least 0.9, where 1 is the maximum; inactive = score below 0.9.
Your response should consist of one outcome taken from 1.0 for active, 0.0 for inactive

Please review the entries below; each comes with its answer.
{"compound": "O=C1CCCC(=O)O1", "cat": 0.0}
{"compound": "CCOCC(=O)O", "cat": 0.0}
{"compound": "CC(C)c1ccc2c(c1)CC[C@H]1[C@](C)(CN)CCC[C@]21C", "cat": 0.0}
{"compound": "CCC(Cc1ccccc1)(C(=O)c1ccc(N2CCOCC2)cc1)N(C)C (stereo unspecified)", "cat": 0.0}
{"compound": "CC1=NN(c2cc(S(=O)(=O)O)ccc2Cl)C(=O)C1N=Nc1ccccc1 (stereo unspecified)", "cat": 1.0}

Please indicate how the test categorized Cc1ccc(C2OC[C@@H]3OC(c4ccc(C)cc4)O[C@H]([C@H](O)CO)[C@@H]3O2)cc1 (stereo partly specified) .
0.0

Please indicate how the test categorized O=C(Nc1cccc(C(F)(F)F)c1)c1cc(Br)cc(Br)c1O .
0.0

# fetch the recorded call for OC1CCCCCCCCCCC1 here
0.0

Which outcome was entered for the compound CC(=O)[C@H]1[C@H](C#N)C[C@H]2[C@@H]3CC=C4C[C@@H](O)CC[C@]4(C)[C@H]3CC[C@@]21C in this test?
0.0

Short answer needed: outcome of this test for CCOC(=O)NNc1nncc2ccccc12 ?
0.0

Each compound tested received a call. Report the one for CC(C)=CC1CC(C)CCO1 (stereo unspecified) .
0.0

Which outcome was entered for the compound O=Nc1ccc(O)cc1 in this test?
0.0

Outcome logged for CC(C)(C)c1n[nH]c(=O)n(N)c1=O in this assay:
0.0

src = PubChem BioAssay (EPA / NIEHS)
